- assay_text: protein stability index of a GFP-peptide fusion (yeast GPS) (PSI 1-4); higher = more stable; sorted into four equal gates, so the index is relative within each strain
- run_parameters: pdr5∆
Would you mind labelling by protein stability index? At or over 3 is true, under is false.

Query block: Hi team, for NIPFWKHVGFELLSMGN [SRP72] , is the recorded protein stability index at or above 3?
Result block: false

Query block: Determine whether this sequence has protein stability index no lower than 3: KDSNKDVVVEGLRRARY [RPL10]
Result block: true

Query block: Is reported protein stability index greater than or equal to 3 here: IVLSDQTQEFFLSSFDD [YJL039C/NUP192]
Result block: false

Query block: Has FLQELLKKVQQQQQAAA [SWI1] a recorded protein stability index greater than or equal to 3?
Result block: false

Query block: # bool: protein stability index of NVNNRFDNFLTEEELQA [BRN1] >= 3
Result block: false

Query block: Could you verify whether the entry ATTSVMMVNNQTMQLIK [SRB6] shows protein stability index of no less than 3?
Result block: false

Query block: Determine whether this sequence has protein stability index no lower than 3: DSIYTKPVKVALIFIFF [YJL039C/NUP192]
Result block: false

Query block: # bool: protein stability index of AQYGIKALPIRRDDEVL [RPL26A] >= 3
Result block: true

Query block: Form field: protein stability index at least 3? Entry: RDKVCKQINEARDEILP [PGD1]
Result block: false

Query block: Has VHDKVLEDMVFPTEIVG [RPS7B] a recorded protein stability index greater than or equal to 3?
Result block: false

Query block: Given SMRTIMKANPALYVLRE [PRP8] , state whether its protein stability index is at least 3.
Result block: false

----------
Task for the reader: assign each of the following sequences its reported protein stability index.
- assay_text: protein stability index of a GFP-peptide fusion (yeast GPS) (PSI 1-4); higher = more stable; sorted into four equal gates, so the index is relative within each strain
- run_parameters: pdr5∆
Keep it simple and answer with nothing but the number.

Query block: Requested read-out: protein stability index. Entry: FLFQNINFERIDEVFSW [GRR1]
Result block: 2.36

Query block: Which measured protein stability index value corresponds to IVLLDDEGKEIPATIFD [TAF14] ?
Result block: 3.07

Query block: // query protein stability index value for entry LDRELLKPSMSVALHRH [RPT3]
Result block: 2.71

Query block: So what does the record say about protein stability index for VLEQLSGQTPVQSKARY [RPL11A] ?
Result block: 2.98

Query block: State the recorded protein stability index for this entry: PFFKYIDDANVTRKQED [RPC37]
Result block: 2.12

Query block: Using the record for NDLDYDLIADTITNSSS [YML103C/NUP188] , report its protein stability index.
Result block: 3.06

Query block: Given the sequence QKTVFDELCKLVTCEGS [SRP54] , what is its reported protein stability index?
Result block: 1.48

Query block: Entry KLNVDQFISSRQFEVKQ [POP1] : reported protein stability index = ?
Result block: 3.08

Query block: Reported protein stability index, sequence PYLVANVVEVMDMNEIE [RPT5] : ____
Result block: 2.19

Query block: Item KLSKILRTEYGWDSLAS [SNU114] has what recorded protein stability index?
Result block: 3.17

Query block: State the recorded protein stability index for this entry: SEYDRGVSTFSPEGRLF [PUP2]
Result block: 3.28

Query block: For the sequence DVNIVNRRLVYSRILKS [YCG1] , what protein stability index is on record?
Result block: 1.16

Query block: Quick one: protein stability index of WASKYGQEYPRIIGLSA [BRR2] ?
Result block: 2.32

Query block: Suppose we examine the sequence QPQETEEHHEEEPSRVD [RPT4] ; what protein stability index value has been reported?
Result block: 3.44

----------
- assay_text: protein stability index of a GFP-peptide fusion (yeast GPS) (PSI 1-4); higher = more stable; sorted into four equal gates, so the index is relative within each strain
- run_parameters: ubr1∆
# protein stability index >= 3 gives y, anything below gives n

Query block: Reported protein stability index reaches at least 3 for NFSNVTDLTNNSTDGAK [YIL149C/MLP2] ?
Result block: n

Query block: Hi, just wondering whether DDEDEDDSDNVMSSDDE [PRE10] shows protein stability index of 3 or higher.
Result block: y

Query block: Quick check: does ISAFTQFLRLIFVSILS [ARP9] have protein stability index greater than or equal to 3?
Result block: n

Query block: Confirm if protein stability index reported for the sequence RNLDSATLKEIKSIIEQ [SMC3] is 3 or above.
Result block: y

Query block: I'd appreciate it if you could say whether VEKLGKKMEARGQSIWV [RPN9] has protein stability index at least equal to 3.
Result block: n

Query block: Record SEYDRGVSTFSPEGRLF [PUP2] ; criterion: protein stability index no lower than 3. Met?
Result block: y

Query block: Answer whether protein stability index of KKEKLDSGEVDADGDID [DPB4] is greater than or equal to 3.
Result block: y

Query block: Form field: protein stability index at least 3? Entry: HKQGSSYVAVLGMGKAV [POP7]
Result block: n

Query block: Check if protein stability index >= 3 (inclusive). Item: SKIQEIESIRSCKDSQL [YIL149C/MLP2]
Result block: n

Query block: Given the entry YLNSRIIPTTLEEQQQL [YML103C/NUP188] , answer whether its protein stability index meets or surpasses 3.
Result block: n

Query block: Record AQFIVISLRNNMFELAQ [SMC4] ; criterion: protein stability index no lower than 3. Met?
Result block: n

----------
- assay_text: protein stability index of a GFP-peptide fusion (yeast GPS) (PSI 1-4); higher = more stable; sorted into four equal gates, so the index is relative within each strain
- run_parameters: san1∆
Param threshold (3) applies to protein stability index; output Y when value >= threshold, N when value < threshold.

Query block: Quick check: does EEELWNSPSKGNSERPS [YIL149C/MLP2] have protein stability index greater than or equal to 3?
Result block: Y

Query block: For this sequence, is measured protein stability index 3 or higher? QFTKVIDEPIKSIMDGI [FAS1]
Result block: N

Query block: For this sequence, is measured protein stability index 3 or higher? KLSDSKTSNIESVPIYS [BRR2]
Result block: N

Query block: Please check the record VAGGKKALAIFVPVPSL [RPS7A] and state if its protein stability index is at or above 3.
Result block: N

Query block: Say whether NTGGESVVKKEDNKYAI [RGR1] shows protein stability index of 3 or more.
Result block: Y

Query block: Record TLYSVKSKEDMKQLKFF [SNU114] ; criterion: protein stability index no lower than 3. Met?
Result block: Y

----------
- assay_text: protein stability index of a GFP-peptide fusion (yeast GPS) (PSI 1-4); higher = more stable; sorted into four equal gates, so the index is relative within each strain
- run_parameters: doa10∆
measured_parameter: protein stability index
Write no unit; give the number alone.

Query block: Look up protein stability index for this sequence: LPRKEVDDVLGGGWDNV [RPC11]
Result block: 3.17

Query block: Sample NFLVFQGDVEQIAAQSP [SMC1] — what was its protein stability index?
Result block: 2.49

Query block: Which protein stability index value belongs to PIPIAVLDSYTPSTNEP [FAS1] ?
Result block: 2.78

Query block: Need protein stability index of DTTVNDCLDKLLNDECT [SNF2] , thanks.
Result block: 3.43

Query block: // lookup protein stability index for GSKQILKTEAANVLDPS [BRR2]
Result block: 3.11

Query block: Look at this sequence and give its reported protein stability index. NSAVNNAISNTQDDFTT [SRP54]
Result block: 3.42

Query block: Consider the sequence shown here: QELCYPDENHDNTSHDE [BRN1] What is its recorded protein stability index?
Result block: 3.23

Query block: # lookup: protein stability index of EDISKATHLPKDNVEHL [RPN9]
Result block: 2.91

Query block: Query: protein stability index; subject: MFLYILKHLEEMGKLRE [RRI2]
Result block: 3.11

Query block: What does the data say about its protein stability index? Entry: RDMIMKRNSDKVEYKIV [ITC1]
Result block: 1.78

Query block: Field request: protein stability index | item: INPESREIVMPAHTKYM [ITC1]
Result block: 1.63

Query block: Query (sequence): LLVDKDANGVSLFELIV [YJL039C/NUP192] ; field requested: protein stability index
Result block: 3.02

Query block: Fill blank: measured protein stability index of the sequence TTIKAIFDGNYGESDIH [YMR129W/POM152] is ____.
Result block: 3.23

Query block: protein stability index lookup needed for TPSTNEPYARVSGDLNP [FAS1] , thanks.
Result block: 2.96

Query block: Reported protein stability index for VGGCKDQIEKLREVVEL [RPT1] : what is it?
Result block: 3.37

Query block: protein stability index lookup needed for MSRSLANGIINVKEITE [SMC3] , thanks.
Result block: 2.63

Query block: Field request: protein stability index | item: VSKKWAAAGVCEKWAAS [RPL14B]
Result block: 2.64

Query block: If you can, please state the reported protein stability index value of SALQQIMYQQMLKYRRL [SNF2] .
Result block: 1.51

Query block: Which protein stability index value belongs to VFSALKNLISRINTLPQ [ECM29] ?
Result block: 3.06

Query block: Param item = LPELWALLNFVLPKIFN [SNF2] ; retrieve measured protein stability index.
Result block: 2.38

Query block: Field request: protein stability index | item: DYDVSKKASEISVSSRS [SRP14]
Result block: 3.52

Query block: Return reported protein stability index; argument: AQLTHSLRRIRDEMSKA [MED8]
Result block: 2.33

Query block: Quick one: protein stability index of LADWRIRPLSKPMTAYA [RRP6] ?
Result block: 2.82

Query block: Need protein stability index, item RYVAGVQQRYTQSGGVR [PRE6]
Result block: 2.84

Query block: Which protein stability index is reported for this sequence? RQKKKPTSAQKSAVSHA [IRR1]
Result block: 1.34

Query block: Field request: protein stability index | item: GWYHSGPKLRASDLKIN [RPN8]
Result block: 1.57

Query block: Which measured protein stability index value corresponds to YDPSIGIFGMDFYVVMN [RPL11A] ?
Result block: 2.26

Query block: Can you share its protein stability index? I mean this sequence: LNELSAKDKEIYNKMIG [RPN13]
Result block: 2.8

Query block: Look up protein stability index: ITPMNDDQCMLITTYSK [SIN4]
Result block: 1.93

Query block: # get_value(readout='protein stability index', item= ALPHVEINQVSLALVIR [RGR1] )
Result block: 1.91

Query block: Give the measured protein stability index of EIKKVTQIVAKFPETSY [SIN4] .
Result block: 2.25

Query block: Any idea what its protein stability index is? The sequence is VILFDSDWNPQADLQAM [ISW2]
Result block: 3.12

Query block: Which protein stability index is listed for MMLGEHLMSWSKTGIIA [SIN4] ?
Result block: 1.6

Query block: Return reported protein stability index; argument: AATIGANFIFSPASGIV [RPT4]
Result block: 2.56

Query block: I'd like to know its protein stability index. The sequence in question is IVWRFISENTFPNGFKN [RPC34]
Result block: 1.84

Query block: So what does the record say about protein stability index for EAHNKALNQFKRKLLEH [RPT4] ?
Result block: 3.32

Query block: Which protein stability index value is on record for RSPVFALNMLPSEILHL [GRR1] ?
Result block: 2.3

Query block: Which protein stability index is listed for LKTEKIFKEINEHSTSY [FAS1] ?
Result block: 3.29

Query block: // query protein stability index value for entry KPLGPCDVFWVQKDTAI [POP1]
Result block: 2.85

Query block: Would you kindly share the measured protein stability index for ASSSAKLIEKKSAYANT [SMC2] ?
Result block: 2.82

Query block: State the recorded protein stability index for this entry: AHNKPSLFSKIKTFFTQ [YAR002W/NUP60]
Result block: 2.37

Query block: Reported protein stability index, sequence GIRVQDSVILASSKAVT [PRE1] : ____
Result block: 2.54

Query block: What does the data say about its protein stability index? Entry: LDPLEVHMLDFPNIAIR [PRP8]
Result block: 2.74

Query block: Given the entry IVLSDQTQEFFLSSFDD [YJL039C/NUP192] , report its measured protein stability index.
Result block: 2.91

Query block: Reported protein stability index for DLENKFNRLKKQAHEKL [YIL149C/MLP2] : what is it?
Result block: 2.75

Query block: If you can, please state the reported protein stability index value of DAGKLVYVTGGRNLGRI [RPS4A] .
Result block: 2.76

Query block: protein stability index lookup needed for NDLDYDLIADTITNSSS [YML103C/NUP188] , thanks.
Result block: 2.9

Query block: // lookup protein stability index for EFNSIDRVIFRVPIRSE [PRP8]
Result block: 3.32

Query block: Please give the measured protein stability index for this sequence: ASSKAVTRGISVLKDSD [PRE1]
Result block: 2.4

Query block: Sample KIYINLALGSHNKLIQF [SSN2] — what was its protein stability index?
Result block: 2.57

Query block: What does the record list as protein stability index for ELNIIPRDLLRVIIQEL [PRP28] ?
Result block: 1.15

Query block: // protein stability index lookup, key: ALYRVNDLRDMILNYNP [UBP6]
Result block: 2.81

Query block: // protein stability index lookup, key: VLEERERGQKVKNVKNS [ARP9]
Result block: 2.71

Query block: Data request, read-out protein stability index, for AEDLTIAAKTHILRISF [SIN4]
Result block: 2.36

Query block: Entry LLIRSKTEDPKGGIIAS [YML031W/NDC1] has what protein stability index?
Result block: 2.37

Query block: Would you mind telling me what protein stability index value was observed for VFVKKHHELIKVKHDSQ [SSN2] ?
Result block: 1.32

Query block: For the sequence shown here, VVEGVTFVVEQLIKQSI [SNU114] , give the reported protein stability index.
Result block: 2.52

Query block: // protein stability index lookup, key: ANNNGSNLQRAQNVPMN [GAL11]
Result block: 3.09

Query block: # protein stability index lookup, item GGFEYFLQPLLLVGLIK [NUT1]
Result block: 1.46

Query block: Please report the recorded protein stability index for IDEIAYLFHNDRIIHTW [ECM29] .
Result block: 1.4
